# TEST SUMMARY: yeast MEP2-GFP fusion level changes, TOR pathway – flow cytometry, third cherry pick, S. cerevisiae, confirmation (AID 504321);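 note: median per-cell GFP fluorescence by flow cytometry across all yeast cells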
# PARTICULARS: S. cerevisiae MEP2-GFP strain, 3 h, at 10 µM
The source made the active and inactive calls.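 Rule for the calls: active = GFP response vs DMSO above 150% with enough events counted; inconclusive = fewer than 70 events counted for a yeast strain; inactive = the rest.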
# output must be one of active, inactive

Worked cases, answers included:
# COMPOUND, QUALITATIVE LABEL
records = [
    ("COc1cccc2c(=O)c(C(=O)O)c[nH]c12", "inactive"),
    ("C=CCNc1nc(N)c([N+](=O)[O-])c(Nc2ccccc2OC)n1", "inactive"),
    ("C/C(=C\\C(=O)c1ccccc1)Nc1ccc(O)cc1", "inactive"),
    ("CSc1ccccc1OCc1cc(C(=O)N2CCN(C)C(c3ccccc3)C2)no1 (stereo not given)", "inactive"),
    ("CCN(CC)C(=O)Oc1cc(=O)n(C)c2ccccc12", "inactive"),
    ("O=C(Nc1nc(-c2ccccn2)cs1)c1ccccc1-n1cnnn1", "inactive"),
    ("C/C(=N\\NC(=O)c1cccc2ccccc12)c1cccnc1", "inactive"),
    ("C[n+]1cccc2c(Br)ccc([O-])c21", "inactive"),
]

Input line: Kindly provide the recorded test outcome for the following compound: COc1ccccc1-c1cc(C(F)(F)F)nc(S(=O)(=O)CCCC(=O)NC(C)C)n1
Output line: inactive

Input line: Kindly provide the recorded test outcome for the following compound: CC1=CN2C(=N)/C(=C/c3ccc(C)o3)C(=O)N=C2S1
Output line: inactive
